Please provide measured TGI for the entries that follow.
Tested on: RXF 393 renal
Test Name: NCI tumour cell line growth inhibition, 48 h

Request: Suppose we examine the compound C1CCOC2(CCC3(CC2)OCCCCO3)OC1 ; what TGI value has been reported?
Response: > 100 µM

Request: Data request, read-out TGI, for CCN1C(=O)N(CC)C2C1NN=c1s/c(=C\c3cc4ccccc4[nH]3)c(=O)n12 (stereo not drawn)
Response: 11.6 µM

Request: Fill in the blank: the reported TGI of C=CC1C(OC2OC(CO)C(O)C(O)C2O)OC=C(C(=O)OC)C1CC=O (stereo not drawn) is ____.
Response: > 100 µM

---

System: M14 melanoma
Test Name: NCI tumour cell line growth inhibition, 48 h; in the data active means GI50 below about 0.43 µM; inactive means the rest
The reply should be one of these categories: active, inactive

Request: Dear all, I need the recorded test outcome for Nc1n[nH]c2cccc(C#Cc3cccc(C(=O)Nc4cc(CN5CCOCC5)cc(C(F)(F)F)c4)c3)c12 , thank you.
Response: inactive

Request: Recorded call for N.N.NCCCCCCN.O=C([O-])CC(=O)[O-].O=C([O-])CC(=O)[O-].[Pt+4].[Pt+4] ?
Response: inactive

Request: Outcome logged for O=C(c1cccnc1)c1cc(-c2ccccn2)c(=O)n2ccccc12 in this assay:
Response: inactive

Request: Recorded call for CC(C)(C#N)c1cc(C(=O)Nc2cc(Nc3ncccc3-c3ncnc4nc[nH]c34)ccc2F)cc(C(F)(F)F)c1 ?
Response: active

Request: Please indicate how the test categorized OCC1OC(n2cnc3c(=S)nc[nH]c32)C(O)C1O (stereo unspecified) .
Response: inactive

Request: Per the assay record, what outcome was assigned to N=C(N)c1ccc(COc2ccccc2OCc2ccc(C(=N)N)cc2)cc1 ?
Response: inactive

Request: Identify the outcome logged in this assay for the compound shown: Cn1ccnc1C(=O)/C=C/c1ccc(CC(=O)Nc2ccc(C(F)(F)F)cc2)cc1
Response: inactive

Request: For this compound, state the assay outcome: CCCOc1nc(SCCC)nc2c1cnn2-c1ccccc1
Response: inactive

Request: Record lookup: outcome of this test for CN(C)c1ccc(C(=C2C=CC(=[N+](C)C)C=C2)c2ccc(N(C)C)cc2)cc1 ?
Response: active

Request: Outcome logged for CCCCCCCOc1c(OC)cc(C2CC(=O)Nc3c2c(C)nn3-c2nc3ccccc3[nH]2)cc1OC (stereo unspecified) in this assay:
Response: inactive

Request: Hey, what did the test say about COc1ccc(-c2nn(-c3cccc(Cl)c3)cc2-c2cc(-c3ccccc3)nc(N)n2)cc1 ?
Response: inactive

Request: What is the recorded call for this compound in the test? O=C(OCCBr)c1ccc(Cl)c([N+](=O)[O-])c1
Response: inactive

Request: # lookup: test call for O=C(CN1CCN(c2ccccc2)CC1)N1CCN(c2nnc(-c3ccc(Cl)cc3)c(-c3ccc(Cl)cc3)n2)CC1
Response: inactive

Request: Give the logged outcome of this assay for the following compound: O=C(N/N=C/c1cc([N+](=O)[O-])ccc1O)c1cccc2ccccc12
Response: inactive

Request: Dear colleague, could you share the recorded outcome for COc1cc(C2C3=C(COC3=O)Nc3cc4c(cc32)CCC4)cc2c1OCO2 (stereo unspecified) when you have a moment?
Response: active

Request: Name the outcome recorded for Cc1[nH]c2ccccc2c1CCNCc1ccc(/C=C/C(=O)NO)cc1 in the assay.
Response: active
